# targetUnderTest: Streptokinase A (Streptococcus pyogenes serotype M1, UniProt P10520)
# Sequence (P10520 whole entry): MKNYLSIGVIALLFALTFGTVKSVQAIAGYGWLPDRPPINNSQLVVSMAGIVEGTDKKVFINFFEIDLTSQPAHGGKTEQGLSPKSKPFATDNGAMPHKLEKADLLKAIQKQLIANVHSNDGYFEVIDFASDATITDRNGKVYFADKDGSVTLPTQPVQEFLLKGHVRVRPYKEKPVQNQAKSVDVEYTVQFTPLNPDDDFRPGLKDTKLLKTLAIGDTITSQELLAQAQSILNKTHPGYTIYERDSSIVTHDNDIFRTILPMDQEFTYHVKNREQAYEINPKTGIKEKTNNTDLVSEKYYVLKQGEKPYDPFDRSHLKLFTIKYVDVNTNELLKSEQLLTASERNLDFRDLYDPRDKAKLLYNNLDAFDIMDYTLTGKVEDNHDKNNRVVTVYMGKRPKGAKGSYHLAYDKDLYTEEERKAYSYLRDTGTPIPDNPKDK
# runDescription: viability-normalized secreted streptokinase activity reduction – plasminogen activation absorbance, OD405, dose response (AID 1914);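 note: secreted streptokinase activity via plasminogen activation per viability signal from cell pellet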
# Assay type: functional, Streptococcus pyogenes M1 GAS
The source made the active and inactive calls.
# key: entry, value: EC50
observable: EC50

>  <compound>
COc1ccccc1N1CC(C(=O)Nc2nnc(SCC(=O)N3CCCC3)s2)CC1=O (stereo not given)

>  <targetUnderTest>
Streptokinase A (Streptococcus pyogenes serotype M1, UniProt P10520)

>  <observable>
EC50

>  <experimentalResult>
> 150 µM (not active)

$$$$
>  <compound>
Oc1ccc(CN2CCc3ccccc3C2)c2cccnc12

>  <targetUnderTest>
Streptokinase A (Streptococcus pyogenes serotype M1, UniProt P10520)

>  <observable>
EC50

>  <experimentalResult>
> 150 µM (not active)

$$$$
>  <compound>
Brc1ccc2[nH]c3c(N4CCc5ccccc5C4)ncnc3c2c1

>  <targetUnderTest>
Streptokinase A (Streptococcus pyogenes serotype M1, UniProt P10520)

>  <observable>
EC50

>  <experimentalResult>
10.9 µM (active)

$$$$
>  <compound>
CN(CC1CCCO1)S(=O)(=O)c1ccc(C(=O)Nc2ccccc2F)cc1 (stereo not given)

>  <targetUnderTest>
Streptokinase A (Streptococcus pyogenes serotype M1, UniProt P10520)

>  <observable>
EC50

>  <experimentalResult>
> 150 µM (not active)

$$$$
>  <compound>
CCCCCCCN1N=C(C)C(C(=O)c2ccccc2)C1=O (stereo not given)

>  <targetUnderTest>
Streptokinase A (Streptococcus pyogenes serotype M1, UniProt P10520)

>  <observable>
EC50

>  <experimentalResult>
> 150 µM (not active)

$$$$

###

# key: entry, value: IC50
# targetUnderTest: Caspase-3 (Homo sapiens, UniProt P42574);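 note: Dose-response selectivity test against caspase-3 for candidate inhibitors of sentrin-specific proteases (SENPs)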
# Assay type: functional
Activity calls are given as the source filed them.
observable: IC50

>  <chemicalSmiles>
Cn1c(=O)c2ncn(CC(=O)Nc3cccc(-c4nc5ccccc5s4)c3)c2n(C)c1=O

>  <observable>
IC50

>  <experimentalResult>
21.4 µM (active)

$$$$
>  <chemicalSmiles>
CCc1ccc2oc(-c3ccc(NC(C)=O)cc3)nc2c1

>  <observable>
IC50

>  <experimentalResult>
12.4 µM (active)

$$$$
>  <chemicalSmiles>
Cc1cccc(-c2cc3nc(-c4ccccc4)cc(O)n3n2)c1

>  <observable>
IC50

>  <experimentalResult>
3.86 µM (active)

$$$$
>  <chemicalSmiles>
CN(C(=O)c1ccccc1)c1nc2ccccc2s1

>  <observable>
IC50

>  <experimentalResult>
15.6 µM (active)

$$$$
>  <chemicalSmiles>
Cc1cc(N2CCCCC2)n2ncc(-c3ccccc3)c2n1

>  <observable>
IC50

>  <experimentalResult>
30.1 µM (active)

$$$$
>  <chemicalSmiles>
CC(=O)N1C(=O)/C(=C2\SC(=S)N(NC(=O)c3ccc(O)cc3)C2=O)c2ccccc21

>  <observable>
IC50

>  <experimentalResult>
12.9 µM (active)

$$$$

###

# System: INS1
# runDescription: INS-1E survival protection against cytokine death – cell-based, luminescence, retest, dose response (AID 449756);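 note: cell death triggered by IL-1 beta plus TNF-alpha plus IFN-gamma mixture; protective hits raise ATP signal compared with cytokine alone wells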
# Assay type: functional
# cond: Rattus norvegicus
Activity calls are given as the source filed them.

>  <molecule>
CCC(CO)Oc1cc(NCc2ccc(C)c(C)c2)c2ncn(C(C)C)c2c1 (stereo not drawn)

>  <AC50>
5.86 µM (active)

$$$$
>  <molecule>
Cc1nc(N/N=C/c2ccccn2)sc1C

>  <AC50>
3.83 µM (active)

$$$$
>  <molecule>
CCCOC(=O)c1ccc(-[n+]2c(-c3ccccc3)cc(-c3ccccc3)cc2-c2ccccc2)cc1.[O-][Cl+3]([O-])([O-])[O-]

>  <AC50>
1.82 µM (active)

$$$$
>  <molecule>
Cc1nc2ccccc2nc1N/N=C/c1ccc(O)cc1O

>  <AC50>
0.882 µM (active)

$$$$
>  <molecule>
COc1cccc(/C=N/Nc2nc3ccccc3n3cnnc23)c1O

>  <AC50>
1.84 µM (active)

$$$$
>  <molecule>
Cc1[nH]n(-c2ccc(Br)cc2)c(=O)c1/C=N/NC(=O)c1ccccc1

>  <AC50>
0.898 µM (active)

$$$$
>  <molecule>
Cc1ccc(N2C(=O)NC(=O)/C(=C\C=C\c3ccco3)C2=O)cc1C

>  <AC50>
4.83 µM (active)

$$$$
>  <molecule>
COc1ccc(C(NC(C)=O)c2cc(Cl)c3cccnc3c2O)cc1 (stereo not drawn)

>  <AC50>
1.95 µM (active)

$$$$

###

# runDescription: Luminescence Cell-Based Dose Response HTS to Identify Inhibitors of 5'UTR Stem-Loop Driven Prion Protein mRNA Translation in H4 Neuroglioblastoma Cells. [Related pubchem assays: 1827 (Project Summary), 1813 (Primary HTS)]
# Format: functional
The source made the active and inactive calls.

>  <chemicalSmiles>
O=C1C(N2CCOCC2)=C(n2nnc3ccccc32)C(=O)c2ccccc21

>  <EC50>
8.93 µM (active)

$$$$
>  <chemicalSmiles>
Cc1cc(C)cc(NC(=O)CSc2ccc(-c3ccccn3)nn2)c1

>  <EC50>
9.74 µM (active)

$$$$
>  <chemicalSmiles>
COc1cccc(/C=C2/NC(=O)NC2=O)c1OCC(=O)Nc1ccccc1

>  <EC50>
> 120 µM (not active)

$$$$
>  <chemicalSmiles>
COc1cc(OC)cc(-c2cc3nc(C)c(CCC(=O)NCc4ccccc4)c(C)n3n2)c1

>  <EC50>
9.35 µM (active)

$$$$
>  <chemicalSmiles>
NS(=O)(=O)c1ccc(CCNC(=O)c2ccc([N+](=O)[O-])cc2[N+](=O)[O-])cc1

>  <EC50>
> 120 µM (not active)

$$$$
>  <chemicalSmiles>
Cn1c(C(=O)NCCOc2ccccc2Cl)cc(=O)n(C)c1=O

>  <EC50>
> 120 µM (not active)

$$$$

###

# targetUnderTest: 72 kDa type IV collagenase (Homo sapiens)
# Sequence (P08253 whole entry): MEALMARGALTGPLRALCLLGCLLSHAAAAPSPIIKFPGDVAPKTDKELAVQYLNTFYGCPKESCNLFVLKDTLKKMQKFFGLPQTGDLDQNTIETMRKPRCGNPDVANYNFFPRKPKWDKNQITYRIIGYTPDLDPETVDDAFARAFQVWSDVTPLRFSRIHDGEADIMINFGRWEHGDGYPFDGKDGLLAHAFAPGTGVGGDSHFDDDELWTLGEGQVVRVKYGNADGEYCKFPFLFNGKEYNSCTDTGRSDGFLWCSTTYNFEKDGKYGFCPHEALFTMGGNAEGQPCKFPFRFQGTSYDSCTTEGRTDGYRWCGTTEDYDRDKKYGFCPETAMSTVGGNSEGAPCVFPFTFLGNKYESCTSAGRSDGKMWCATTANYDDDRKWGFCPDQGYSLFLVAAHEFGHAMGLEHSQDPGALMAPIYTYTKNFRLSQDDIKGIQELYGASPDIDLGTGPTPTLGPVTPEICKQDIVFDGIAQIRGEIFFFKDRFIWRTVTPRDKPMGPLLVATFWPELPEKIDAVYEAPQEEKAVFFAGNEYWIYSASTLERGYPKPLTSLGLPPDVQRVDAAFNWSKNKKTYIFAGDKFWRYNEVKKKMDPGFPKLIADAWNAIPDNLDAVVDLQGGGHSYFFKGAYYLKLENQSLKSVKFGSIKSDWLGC
# runDescription: Dose Response validation of uHTS RPN11 inhibitor hits using a MMP-2 Fluorescence assay.
# Format: functional
Active and inactive are the calls of the source.
Classes used: active, inactive

>  <chemicalSmiles>
CN(C)c1ccc(/C=C/C=C2/C(=O)NC(=O)N(c3ccccc3)C2=O)cc1

>  <targetUnderTest>
72 kDa type IV collagenase (Homo sapiens)

>  <assignedLabel>
active

$$$$
>  <chemicalSmiles>
N=C1/C(=C/c2ccc(-c3cccc(C(=O)O)c3)o2)C(=O)N=C2SC=C(c3ccccc3)N12

>  <targetUnderTest>
72 kDa type IV collagenase (Homo sapiens)

>  <assignedLabel>
active

$$$$
>  <chemicalSmiles>
Cc1c(P(=S)(c2ccccc2)c2ccccc2)[n+]2ccccc2n1C

>  <targetUnderTest>
72 kDa type IV collagenase (Homo sapiens)

>  <assignedLabel>
inactive

$$$$
>  <chemicalSmiles>
O=C(/C=C/c1ccccc1Cl)Nc1ccc2c(c1)C(=O)NC2=O

>  <targetUnderTest>
72 kDa type IV collagenase (Homo sapiens)

>  <assignedLabel>
active

$$$$
>  <chemicalSmiles>
CCOc1cc(/C=C2\SC(=S)N(NS(=O)(=O)c3ccc(C)cc3)C2=O)ccc1O

>  <targetUnderTest>
72 kDa type IV collagenase (Homo sapiens)

>  <assignedLabel>
active

$$$$
>  <chemicalSmiles>
O=C1c2ccccc2S(=O)(=O)c2cc(N3CCOCC3)ccc21

>  <targetUnderTest>
72 kDa type IV collagenase (Homo sapiens)

>  <assignedLabel>
inactive

$$$$
>  <chemicalSmiles>
CCc1ccc(NC(=O)CCc2nc3sc4c(c3c(=O)[nH]2)CCCC4)cc1

>  <targetUnderTest>
72 kDa type IV collagenase (Homo sapiens)

>  <assignedLabel>
inactive

$$$$

###

# key: entry, value: AC50
# runDescription: reduction of Shn3 3'UTR-driven luciferase in osteoblasts – cell-based, Clone20 osteoblasts, firefly luciferase, cherry-picked, dose response (AID 624132);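 note: firefly luciferase luminescence from reporter carrying the Shn3 3'UTR in osteoblasts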
# Type: functional
Structures can show the parent of a compound that is named as a salt. Calls of active or inactive are those of the source.

>  <molecule>
Oc1ccc(CN2CCCc3ccccc32)c2cccnc12

>  <AC50>
5.4 µM (active)

$$$$
>  <molecule>
CN1OC[C@@H]2CN[C@H](c3ccc(-c4cc5ccccc5o4)cc3)C[C@@H]21

>  <AC50>
< 0.26 µM (active)

$$$$
>  <molecule>
COc1cc(NS(C)(=O)=O)ccc1Nc1c2ccccc2nc2ccccc12 [AMSACRINE HYDROCHLORIDE]

>  <AC50>
1.32 µM (active)

$$$$
>  <molecule>
CN(C)CCNC(=O)c1cccc2nc3cccc(F)c3nc12

>  <AC50>
13.7 µM (active)

$$$$
>  <molecule>
COc1ccc(-c2ccc(Nc3ccc(S(=O)(=O)N4CCCC4)cc3)nn2)cc1OC

>  <AC50>
20.1 µM (active)

$$$$
>  <molecule>
OCc1ccc(O)c2ncccc12

>  <AC50>
1.66 µM (active)

$$$$
